# SYSTEM: estrone sulfatase (Rattus norvegicus, UniProt P15589)
# Sequence (P15589 20-577): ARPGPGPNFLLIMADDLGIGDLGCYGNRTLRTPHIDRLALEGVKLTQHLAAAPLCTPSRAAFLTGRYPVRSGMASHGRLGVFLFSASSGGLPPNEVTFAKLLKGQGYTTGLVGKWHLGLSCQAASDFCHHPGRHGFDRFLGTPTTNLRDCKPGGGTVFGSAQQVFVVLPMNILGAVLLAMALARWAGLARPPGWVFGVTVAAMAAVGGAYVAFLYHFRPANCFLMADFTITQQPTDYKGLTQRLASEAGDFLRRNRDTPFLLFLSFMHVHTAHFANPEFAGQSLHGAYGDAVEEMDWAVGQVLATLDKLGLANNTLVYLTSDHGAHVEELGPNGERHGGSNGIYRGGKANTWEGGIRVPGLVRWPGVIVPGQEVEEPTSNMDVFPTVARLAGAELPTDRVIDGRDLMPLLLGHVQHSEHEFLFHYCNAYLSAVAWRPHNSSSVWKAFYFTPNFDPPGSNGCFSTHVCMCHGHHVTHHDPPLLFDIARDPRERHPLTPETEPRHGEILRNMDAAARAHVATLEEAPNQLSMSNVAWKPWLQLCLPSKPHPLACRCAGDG
pKi: −log10 of the molar value.
MEASUREMENT NAME: pKi

INSERT INTO results (compound, observed_value) VALUES
  ('CC/C(=C(/c1ccc(OCCN(C)C)cc1)c1ccc(OS(N)(=O)=O)cc1)c1ccccc1 [tamoxifen sulfamate, (Z)-4-Hydroxytamoxifen Sulfamate]', '~4.77');
